Origin of measurements: patent US20260217835A1

# target-system: the molecule itself
# test: SEC peak area ratio; full-length heavy chain, light chain and Fc fragment coexpressed in Expi293F, Protein A purified
measured-quantity: Homo Fc fragment (%)
Numeric only. Scale: %

E345R/E430G/S440Y (promote hexamer formation) Fc fragment with T394W/F405A, SEQ ID NO: 604 (other) DKTHTCPPCPAPELLGGPSVFLFPPKPKDTLMISRTPEVTCVVVDVSHEDPEVKFNWYVDGVEVHNAKTKPREEQYNSTYRVVSVLTVLHQDWLNGKEYKCKVSNKALPAPIEKTISKAKGQPRRPQVYTLPPSREEMTKNQVSLTCLVKGFYPSDIAVEWESNGQPENNYKTWPPVLDSDGSFALYSKLTVDKSRWQQGNVFSCSVMHGALHNHYTQKYLSLSP ... 13.9
L234F/L235E/P331S (suppress FcγR binding) Fc fragment with T366W/L368A/Y407V, SEQ ID NO: 601 (other) DKTHTCPPCPAPEFEGGPSVFLFPPKPKDTLMISRTPEVTCVVVDVSHEDPEVKFNWYVDGVEVHNAKTKPREEQYNSTYRVVSVLTVLHQDWLNGKEYKCKVSNKALPASIEKTISKAKGQPREPQVYTLPPSREEMTKNQVSLWCAVKGFYPSDIAVEWESNGQPENNYKTTPPVLDSDGSFFLVSKLTVDKSRWQQGNVFSCSVMHEALHNHYTQKSLSLSP ... 39.3

Here is another protein to look at.
Tell me measured Homo Fc fragment (%) for L234F/L235E/P331S (suppress FcγR binding) Fc fragment with E356K/K392D/D399K/K439E, SEQ ID NO: 603 (other) DKTHTCPPCPAPEFEGGPSVFLFPPKPKDTLMISRTPEVTCVVVDVSHEDPEVKFNWYVDGVEVHNAKTKPREEQYNSTYRVVSVLTVLHQDWLNGKEYKCKVSNKALPASIEKTISKAKGQPREPQVYTLPPSRKEMTKNQVSLTCLVKGFYPSDIAVEWESNGQPENNYDTTPPVLKSDGSFFLYSKLTVDKSRWQQGNVFSCSVMHEALHNHYTQESLSLSP please.
37.7
